- METHOD_SUMMARY: Half life in C57BL6 mouse at 10 mg/kg, po or 3 mg/kg, iv after 0.25 to 24 hrs by LCMS/MS analysis
- Type: ADME, organism-based
- STUDY_CONDITIONS: in vivo, time 0.25-24 hrs
OBSERVATION_TYPE: half-life (h)
Response body: numeric value in h, unit text excluded.

INPUT: half-life lookup needed for N[C@@H](CC(=O)O)Cn1nnc(-c2ccc(Oc3ncc(Cl)cc3F)cc2)n1 , thanks.
OUTPUT: 16.7

* * *

- METHOD_SUMMARY: Drug concentration in blood of C57BL/6 mouse model of KRN passive serum-induced arthritis at 10 mg/kg, po BID for 6 days and measured 14 hrs post last dose
- Format: ADME, organism-based
- STUDY_CONDITIONS: whole blood, time 6 day, read-out: Ct
OBSERVATION_TYPE: concentration at 144 h (nM)
Response body: numeric value in nM, unit text excluded.

INPUT: concentration at 144 h lookup needed for N[C@@H](CC(=O)O)Cn1nnc(-c2ccc(Oc3ncc(Cl)cc3F)cc2)n1 , thanks.
OUTPUT: 121

* * *

- METHOD_SUMMARY: Volume of distribution at steady state in Beagle dog at 0.3 mg/kg, po or 0.1 mg/kg, iv measured upto 120 hrs by LCMS/MS analysis
- Assay type: ADME, organism-based, Canis lupus familiaris
- STUDY_CONDITIONS: in vivo, read-out: Vdss
OBSERVATION_TYPE: Vd (L/kg)
Response body: numeric value in L/kg, unit text excluded.

INPUT: Vd lookup needed for N[C@@H](CC(=O)O)Cn1nnc(-c2ccc(Oc3ncc(Cl)cc3F)cc2)n1 , thanks.
OUTPUT: 3.81

* * *

Would you kindly list pIC50 for each of these compounds?
- TEST_SYSTEM: Cytochrome P450 2C9 (Homo sapiens, UniProt P11712)
- Sequence (P11712 whole entry): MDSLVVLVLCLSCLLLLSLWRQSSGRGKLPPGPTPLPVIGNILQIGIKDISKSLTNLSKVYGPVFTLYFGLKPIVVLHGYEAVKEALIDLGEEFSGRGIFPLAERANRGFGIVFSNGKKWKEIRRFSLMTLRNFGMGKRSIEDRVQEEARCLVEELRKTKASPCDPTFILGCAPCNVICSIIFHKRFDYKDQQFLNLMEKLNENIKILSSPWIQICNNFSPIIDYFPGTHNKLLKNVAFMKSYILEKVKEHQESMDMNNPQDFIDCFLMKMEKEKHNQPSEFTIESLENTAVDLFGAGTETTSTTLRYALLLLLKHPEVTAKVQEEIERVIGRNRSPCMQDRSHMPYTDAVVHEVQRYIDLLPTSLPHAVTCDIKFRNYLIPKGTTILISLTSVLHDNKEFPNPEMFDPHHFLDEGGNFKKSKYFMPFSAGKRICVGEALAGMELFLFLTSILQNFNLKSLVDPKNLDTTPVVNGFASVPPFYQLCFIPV
- METHOD_SUMMARY: Reversible inhibition of CYP2C9 in human liver microsomes using […] as substrate incubated for 10 mins in presence of NADPH by LC-MS analysis
- Format: ADME
pIC50: −log10 of the molar value.

INPUT: pIC50 lookup needed for C[C@H](CN)n1nnc(-c2ccc(Oc3ccc(Cl)cc3)cc2)n1 , thanks.
OUTPUT: 5.70

INPUT: pIC50 lookup needed for O=C(O)CCCn1nnc(-c2ccc(Oc3ccc(Cl)cc3)cc2)n1 , thanks.
OUTPUT: < 4.70

INPUT: pIC50 lookup needed for O=C(O)CCn1nnc(-c2ccc(Oc3ccc(Cl)cc3)cc2)n1 , thanks.
OUTPUT: < 4.70

INPUT: pIC50 lookup needed for NCCCn1nnc(-c2ccc(Oc3ccc(Cl)cc3)cc2)n1 , thanks.
OUTPUT: < 4.70

INPUT: pIC50 lookup needed for CC(=O)NCCn1nnc(-c2ccc(Oc3ccc(Cl)cc3)cc2)n1 , thanks.
OUTPUT: < 4.70

INPUT: pIC50 lookup needed for Cc1ccc(Oc2ccc(-c3nnn(CCN)n3)cc2)cc1 , thanks.
OUTPUT: 5.85

* * *

- TEST_SYSTEM: Leukotriene A-4 hydrolase (Homo sapiens)
- METHOD_SUMMARY: Inhibition of recombinant full length N-terminal His6-tagged LTA4H (unknown origin) expressed in Escherichia coli BL21 DE3 cells at enzyme concentration 9 nM using Arg-AMC as substrate preincubated for 15 mins followed by substrate addition and measured every 10 mins for 300 mins by fluorescence based assay
OBSERVATION_TYPE: IC50 (µM)
Response body: numeric value in µM, unit text excluded.

INPUT: IC50 lookup needed for OCc1ccc(Oc2ccccc2)cc1 , thanks.
OUTPUT: 4.5

* * *

- METHOD_SUMMARY: Drug concentration in blood of C57BL/6 mouse model of KRN passive serum-induced arthritis at 30 mg/kg, po BID for 6 days and measured 2 hrs post last dose
- Format: ADME, organism-based
- STUDY_CONDITIONS: whole blood, time 6 day, read-out: Ct
OBSERVATION_TYPE: concentration at 144 h (nM)
Response body: numeric value in nM, unit text excluded.

INPUT: concentration at 144 h lookup needed for N[C@@H](CC(=O)O)Cn1nnc(-c2ccc(Oc3ncc(Cl)cc3F)cc2)n1 , thanks.
OUTPUT: 184

* * *

- TEST_SYSTEM: Voltage-gated inwardly rectifying potassium channel KCNH2 (Homo sapiens, UniProt Q12809)
- Sequence (Q12809 whole entry): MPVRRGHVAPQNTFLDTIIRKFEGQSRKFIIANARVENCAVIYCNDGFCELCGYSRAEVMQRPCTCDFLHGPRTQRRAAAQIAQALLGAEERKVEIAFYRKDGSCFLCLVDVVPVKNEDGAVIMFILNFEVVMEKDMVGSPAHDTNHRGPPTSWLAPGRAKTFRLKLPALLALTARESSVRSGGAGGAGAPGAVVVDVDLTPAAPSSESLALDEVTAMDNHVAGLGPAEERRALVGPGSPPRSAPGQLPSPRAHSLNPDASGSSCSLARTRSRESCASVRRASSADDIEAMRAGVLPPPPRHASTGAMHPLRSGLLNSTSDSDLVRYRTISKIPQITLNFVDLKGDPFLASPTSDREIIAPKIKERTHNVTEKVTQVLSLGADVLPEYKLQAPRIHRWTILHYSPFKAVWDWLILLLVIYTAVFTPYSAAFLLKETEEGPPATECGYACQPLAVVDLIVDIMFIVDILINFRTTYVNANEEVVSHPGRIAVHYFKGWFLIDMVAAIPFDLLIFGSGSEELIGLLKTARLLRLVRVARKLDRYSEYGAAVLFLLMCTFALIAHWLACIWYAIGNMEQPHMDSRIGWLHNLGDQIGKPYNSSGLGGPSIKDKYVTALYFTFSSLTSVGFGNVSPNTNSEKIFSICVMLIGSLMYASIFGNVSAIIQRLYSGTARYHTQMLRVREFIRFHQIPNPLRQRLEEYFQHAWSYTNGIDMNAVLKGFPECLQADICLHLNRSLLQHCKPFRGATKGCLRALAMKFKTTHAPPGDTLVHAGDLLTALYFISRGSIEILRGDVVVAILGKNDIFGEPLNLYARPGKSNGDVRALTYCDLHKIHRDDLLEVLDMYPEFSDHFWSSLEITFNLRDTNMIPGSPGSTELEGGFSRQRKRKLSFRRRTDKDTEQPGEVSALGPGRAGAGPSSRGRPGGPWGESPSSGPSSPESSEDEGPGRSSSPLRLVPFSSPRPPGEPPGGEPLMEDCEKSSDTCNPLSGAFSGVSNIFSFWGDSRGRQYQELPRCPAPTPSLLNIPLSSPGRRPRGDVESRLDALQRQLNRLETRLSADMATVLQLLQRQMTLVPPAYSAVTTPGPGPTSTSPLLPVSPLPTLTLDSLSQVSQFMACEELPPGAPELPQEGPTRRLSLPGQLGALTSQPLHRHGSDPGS
- METHOD_SUMMARY: Displacement of [3H]dofetilide from recombinant human ERG stably expressed in HEK293 cell membranes measured after 90 mins by microbeta liquid scintillation counting method
pIC50: −log10 of the molar value.
OBSERVATION_TYPE: pIC50

INPUT: pIC50 lookup needed for CC(=O)NCCn1nnc(-c2ccc(Oc3ccc(Cl)cc3)cc2)n1 , thanks.
OUTPUT: < 4.52

INPUT: pIC50 lookup needed for C[C@@H](N)Cn1nnc(-c2ccc(Oc3ccc(Cl)cc3)cc2)n1 , thanks.
OUTPUT: < 4.52

INPUT: pIC50 lookup needed for NCCCn1nnc(-c2ccc(Oc3ccc(Cl)cc3)cc2)n1 , thanks.
OUTPUT: 5.32

INPUT: pIC50 lookup needed for O=C(O)CCn1nnc(-c2ccc(Oc3ccc(Cl)cc3)cc2)n1 , thanks.
OUTPUT: < 4.52

INPUT: pIC50 lookup needed for O=C(O)CCCn1nnc(-c2ccc(Oc3ccc(Cl)cc3)cc2)n1 , thanks.
OUTPUT: < 4.52

INPUT: pIC50 lookup needed for C[C@H](CN)n1nnc(-c2ccc(Oc3ccc(Cl)cc3)cc2)n1 , thanks.
OUTPUT: < 4.52

INPUT: pIC50 lookup needed for Cc1ccc(Oc2ccc(-c3nnn(CCN)n3)cc2)cc1 , thanks.
OUTPUT: 5.24

* * *

- METHOD_SUMMARY: Drug concentration in blood of C57BL/6 mouse model of KRN passive serum-induced arthritis at 10 mg/kg, po BID for 6 days and measured 2 hrs post last dose
- Format: ADME, organism-based
- STUDY_CONDITIONS: whole blood, time 6 day, read-out: Ct
OBSERVATION_TYPE: concentration at 144 h (µM)
Response body: numeric value in µM, unit text excluded.

INPUT: concentration at 144 h lookup needed for N[C@@H](CC(=O)O)Cn1nnc(-c2ccc(Oc3ncc(Cl)cc3F)cc2)n1 , thanks.
OUTPUT: 6.69

* * *

- METHOD_SUMMARY: Drug concentration in blood isolated from C57/BL6 mouse at […], po BID for 3 days measured after 14 hrs post last dose
- Assay type: ADME, organism-based
- STUDY_CONDITIONS: dose 2.5 mg/kg, time 3 day, read-out: Ct
OBSERVATION_TYPE: concentration at 72 h
Answer with the value and then the unit.

INPUT: concentration at 72 h lookup needed for O=C(O)c1ccc(CN2C[C@@H]3C[C@H]2CN3Cc2ccc(Oc3ccc(-c4ncco4)cc3)cc2)cc1 , thanks.
OUTPUT: 166 nM

INPUT: concentration at 72 h lookup needed for N[C@@H](CC(=O)O)Cn1nnc(-c2ccc(Oc3ncc(Cl)cc3F)cc2)n1 , thanks.
OUTPUT: 125 nM

* * *

- METHOD_SUMMARY: Half life in Beagle dog at 0.3 mg/kg, po or 0.1 mg/kg, iv measured upto 120 hrs by LCMS/MS analysis
- Type: ADME, organism-based, Canis lupus familiaris
- STUDY_CONDITIONS: in vivo
OBSERVATION_TYPE: half-life (h)
Response body: numeric value in h, unit text excluded.

INPUT: half-life lookup needed for N[C@@H](CC(=O)O)Cn1nnc(-c2ccc(Oc3ncc(Cl)cc3F)cc2)n1 , thanks.
OUTPUT: 48.8

* * *

- METHOD_SUMMARY: Drug concentration in blood of C57BL/6 mouse model of KRN passive serum-induced arthritis at 3 mg/kg, po BID for 6 days and measured 2 hrs post last dose
- Format: ADME, organism-based
- STUDY_CONDITIONS: whole blood, time 6 day, read-out: Ct
OBSERVATION_TYPE: concentration at 144 h (nM)
Response body: numeric value in nM, unit text excluded.

INPUT: concentration at 144 h lookup needed for N[C@@H](CC(=O)O)Cn1nnc(-c2ccc(Oc3ncc(Cl)cc3F)cc2)n1 , thanks.
OUTPUT: 415

* * *

- METHOD_SUMMARY: Drug concentration in plasma isolated from C57/BL6 mouse at […], po BID for 3 days measured after 14 hrs post last dose
- Assay type: ADME, organism-based
- STUDY_CONDITIONS: dose 2.5 mg/kg, time 3 day
OBSERVATION_TYPE: concentration at 72 h
Answer with the value and then the unit.

INPUT: concentration at 72 h lookup needed for N[C@@H](CC(=O)O)Cn1nnc(-c2ccc(Oc3ncc(Cl)cc3F)cc2)n1 , thanks.
OUTPUT: 4 nM

INPUT: concentration at 72 h lookup needed for O=C(O)c1ccc(CN2C[C@@H]3C[C@H]2CN3Cc2ccc(Oc3ccc(-c4ncco4)cc3)cc2)cc1 , thanks.
OUTPUT: 94 nM

* * *

Would you kindly list pIC50 for each of these molecules?
- TEST_SYSTEM: UniProtKB P09960
- Sequence (P09960 whole entry): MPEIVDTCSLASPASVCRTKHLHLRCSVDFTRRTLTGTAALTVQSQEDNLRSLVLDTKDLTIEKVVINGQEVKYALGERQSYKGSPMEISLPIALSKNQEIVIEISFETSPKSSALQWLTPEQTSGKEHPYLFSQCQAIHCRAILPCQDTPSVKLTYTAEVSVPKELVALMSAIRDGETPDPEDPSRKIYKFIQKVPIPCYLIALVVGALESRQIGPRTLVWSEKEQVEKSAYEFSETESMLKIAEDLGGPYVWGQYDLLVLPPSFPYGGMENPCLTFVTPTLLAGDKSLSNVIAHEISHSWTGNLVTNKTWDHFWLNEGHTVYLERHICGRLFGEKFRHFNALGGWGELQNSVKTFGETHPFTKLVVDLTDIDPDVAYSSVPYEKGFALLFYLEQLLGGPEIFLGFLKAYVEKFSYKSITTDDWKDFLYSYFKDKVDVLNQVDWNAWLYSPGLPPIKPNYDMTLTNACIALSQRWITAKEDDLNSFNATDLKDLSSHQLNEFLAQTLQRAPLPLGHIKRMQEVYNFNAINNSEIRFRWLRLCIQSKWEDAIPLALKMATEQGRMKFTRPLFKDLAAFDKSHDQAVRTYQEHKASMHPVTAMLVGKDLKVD
- METHOD_SUMMARY: Inhibition of recombinant full length N-terminal His6-tagged LTA4H (unknown origin) expressed in Escherichia coli BL21 DE3 cells at enzyme concentration <1 nM using Arg-AMC as substrate preincubated for 15 mins followed by substrate addition and measured every 10 mins for 300 mins by fluorescence based assay
Recall that pIC50 is obtained by taking minus log10 of the concentration measured in molar.

INPUT: pIC50 lookup needed for O=C(O)c1ccc(CN2C[C@@H]3C[C@H]2CN3Cc2ccc(Oc3ccc(-c4ncco4)cc3)cc2)cc1 [ACEBILUSTAT] , thanks.
OUTPUT: 8.31

INPUT: pIC50 lookup needed for CC(=O)N[C@H]1C[C@H]2CC[C@@H](C1)N2Cc1ccc(Oc2nc3ncccc3s2)cc1 , thanks.
OUTPUT: 8.72
